- study_target: human ACC2 (Homo sapiens)
- Construct: made in house; host or cells: insect cells (baculoviral expression system)
- Sequence (O00763 129-2458 limits assumed): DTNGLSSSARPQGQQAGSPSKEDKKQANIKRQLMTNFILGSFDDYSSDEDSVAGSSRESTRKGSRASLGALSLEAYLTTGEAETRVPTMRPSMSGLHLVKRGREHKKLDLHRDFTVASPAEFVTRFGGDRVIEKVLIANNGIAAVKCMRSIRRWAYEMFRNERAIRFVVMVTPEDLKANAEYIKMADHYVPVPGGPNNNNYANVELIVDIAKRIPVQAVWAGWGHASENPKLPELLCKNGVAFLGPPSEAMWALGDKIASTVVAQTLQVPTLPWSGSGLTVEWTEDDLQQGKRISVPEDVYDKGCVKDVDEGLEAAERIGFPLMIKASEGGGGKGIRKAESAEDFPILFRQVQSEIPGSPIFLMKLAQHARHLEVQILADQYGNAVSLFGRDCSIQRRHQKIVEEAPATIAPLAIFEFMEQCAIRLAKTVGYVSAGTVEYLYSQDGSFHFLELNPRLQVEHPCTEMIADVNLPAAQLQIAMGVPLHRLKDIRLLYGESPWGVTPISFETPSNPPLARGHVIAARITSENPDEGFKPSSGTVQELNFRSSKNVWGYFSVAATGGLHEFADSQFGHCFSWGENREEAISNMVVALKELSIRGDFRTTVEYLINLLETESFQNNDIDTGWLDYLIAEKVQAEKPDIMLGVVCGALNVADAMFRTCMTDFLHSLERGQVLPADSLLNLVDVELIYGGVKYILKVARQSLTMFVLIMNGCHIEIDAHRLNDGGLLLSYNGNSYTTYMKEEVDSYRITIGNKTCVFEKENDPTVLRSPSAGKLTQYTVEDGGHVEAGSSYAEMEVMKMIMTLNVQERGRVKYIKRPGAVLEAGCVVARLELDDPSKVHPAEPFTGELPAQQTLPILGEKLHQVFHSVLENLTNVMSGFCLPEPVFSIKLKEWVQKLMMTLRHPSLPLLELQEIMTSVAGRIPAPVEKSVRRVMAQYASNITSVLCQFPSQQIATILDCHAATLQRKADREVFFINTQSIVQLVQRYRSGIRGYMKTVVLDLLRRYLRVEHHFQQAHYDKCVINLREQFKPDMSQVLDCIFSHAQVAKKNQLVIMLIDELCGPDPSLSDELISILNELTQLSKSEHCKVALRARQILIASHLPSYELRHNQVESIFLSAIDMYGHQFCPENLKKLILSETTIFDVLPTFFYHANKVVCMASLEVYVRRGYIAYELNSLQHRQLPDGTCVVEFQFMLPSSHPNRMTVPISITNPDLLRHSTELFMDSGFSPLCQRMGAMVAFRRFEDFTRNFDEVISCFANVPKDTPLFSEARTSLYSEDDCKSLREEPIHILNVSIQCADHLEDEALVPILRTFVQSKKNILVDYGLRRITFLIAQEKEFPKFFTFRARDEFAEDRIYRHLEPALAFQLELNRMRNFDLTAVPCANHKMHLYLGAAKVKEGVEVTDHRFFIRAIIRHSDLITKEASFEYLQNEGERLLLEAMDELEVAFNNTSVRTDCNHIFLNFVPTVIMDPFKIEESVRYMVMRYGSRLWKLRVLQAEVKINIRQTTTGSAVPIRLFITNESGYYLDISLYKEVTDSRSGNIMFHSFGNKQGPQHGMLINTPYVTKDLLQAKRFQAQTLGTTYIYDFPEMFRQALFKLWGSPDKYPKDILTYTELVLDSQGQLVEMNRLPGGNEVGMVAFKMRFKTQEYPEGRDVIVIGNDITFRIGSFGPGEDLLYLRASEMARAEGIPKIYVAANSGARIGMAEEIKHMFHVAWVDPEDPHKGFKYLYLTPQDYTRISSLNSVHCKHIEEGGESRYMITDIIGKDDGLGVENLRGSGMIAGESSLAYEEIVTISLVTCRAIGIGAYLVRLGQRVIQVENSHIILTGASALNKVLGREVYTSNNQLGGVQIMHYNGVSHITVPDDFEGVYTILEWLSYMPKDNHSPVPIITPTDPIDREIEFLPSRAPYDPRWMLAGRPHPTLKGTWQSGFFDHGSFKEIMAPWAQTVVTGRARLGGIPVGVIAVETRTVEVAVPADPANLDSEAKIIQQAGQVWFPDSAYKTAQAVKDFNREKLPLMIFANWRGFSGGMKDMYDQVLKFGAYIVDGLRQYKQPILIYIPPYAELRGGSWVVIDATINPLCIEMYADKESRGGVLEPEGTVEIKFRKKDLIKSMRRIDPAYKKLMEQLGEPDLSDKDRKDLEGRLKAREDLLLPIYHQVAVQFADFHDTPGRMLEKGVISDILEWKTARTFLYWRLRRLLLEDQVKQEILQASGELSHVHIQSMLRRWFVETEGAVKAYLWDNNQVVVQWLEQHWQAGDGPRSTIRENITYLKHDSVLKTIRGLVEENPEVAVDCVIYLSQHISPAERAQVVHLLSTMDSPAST
- assay_explanation: ACC2 assay, spectrophotometric 384 well assay (NADH-linked, coupled lactate dehydrogenase/pyruvate kinase)
- Format: biochemical
- condition_description: ACC2 assay, hACC2 construct lacking 128 N-terminal amino acids, 25° C., 340 nm; read-out: IC50
I'd be grateful if you could share measured IC50 for these entries.
Give a bare numeral; the unit nM is implied.

Request: Give its IC50 value. Item: CCOc1ccc(N2CCC(c3ccc([C@H](C)NC(=O)C4CC4C)cc3)CC2)cc1 (stereo partly shown)
Response: 1100

Request: Moving on to `CC(=O)N[C@@H](C)c1ccc(C2CCN(c3ccc(OCCC4CC4)cc3)CC2)cc1`
Response: 100

Request: Moving on to `COc1nc(N2CCC(c3ccc([C@H](C)NC(C)=O)cc3)CC2)ncc1-c1ccccc1`
Response: 260

Request: Moving on to `CC(=O)N[C@@H](C)c1ccc(C2CCN(c3ncc(C(=O)N4CCN(C)CC4)cn3)CC2)cc1`
Response: 13600

----------
I'd be grateful if you could share measured pIC50 for these entries.
- study_target: human ACC2 (Homo sapiens)
- Construct: made in house; host or cells: insect cells (baculoviral expression system)
- assay_explanation: ACC2 assay, spectrophotometric 384 well assay (NADH-linked, coupled lactate dehydrogenase/pyruvate kinase)
- Assay type: biochemical
- condition_description: ACC2 assay, hACC2 construct lacking 128 N-terminal amino acids, 25° C., 340 nm; read-out: IC50
- Description: Spectrophotometric 384 Well Assay Malonyl CoA formation by acetyl CoA carboxylases is stoichometrically linked to the consumption of ATP. ACC2 activity is measured in a NADH-linked kinetic method measuring ADP generated during the ACC reaction using a coupled lactate dehydrogenase/pyruvate kinase reaction. For biological testing, a human ACC2 construct which lacks the 128 amino acids at the N-terminus for increased solubility (nt 385-6966 in Genbank entry AJ575592) is cloned. […]
// pIC50 here means minus log10 of the molar concentration (mol/L)

Request: Give its pIC50 value. Item: `CC(=O)N[C@@H](C)c1ccc(C2CCN(c3ccc(C(C)C)cn3)CC2)cc1`
Response: 5.49

Request: Moving on to `CC(=O)N[C@@H](C)c1ccc(C2CCN(c3ccnc(OCC(C)C)c3)CC2)cc1`
Response: 6.96

Request: Moving on to `C[C@H](NC(=O)N(C)C)c1ccc(C2CCN(c3ncc(C4CC4)cn3)CC2)cc1`
Response: 6.62

Request: Moving on to `C[C@H](NC(=O)N(C)C)c1ccc(C2CCN(c3ccc(OCC4CC4)cc3)CC2)cc1`
Response: 6.68

----------
- study_target: human ACC2 (Homo sapiens)
- Construct: made in house; host or cells: insect cells (baculoviral expression system)
- assay_explanation: ACC2 assay, spectrophotometric 384 well assay (NADH-linked, coupled lactate dehydrogenase/pyruvate kinase)
- Type: biochemical
- condition_description: ACC2 assay, hACC2 construct lacking 128 N-terminal amino acids, 25° C., 340 nm; read-out: IC50
I'd be grateful if you could share measured IC50 for these entries.
Give a bare numeral; the unit µM is implied.

Request: Value wanted: IC50 (human ACC2 (Homo sapiens)) of entry `CC(=O)N[C@@H](C)c1ccc(C2CCN(c3ncc(C(=O)N4CCC(C#N)CC4)cn3)CC2)cc1`
Response: 14.8

Request: Moving on to `CC(=O)N[C@@H](C)c1ccc(C2CCN(c3ccnc(C)n3)CC2)cc1`
Response: 9

Request: Moving on to `CC(=O)N[C@@H](C)c1ccc(C2CCN(c3ccc4ccc(Cl)cc4n3)CC2)cc1`
Response: 1

Request: Moving on to `CC(=O)N[C@@H](C)c1ccc(C2CCN(c3ccc(Cl)cc3C#N)CC2)cc1`
Response: 16.3

Request: Moving on to `CC(=O)N[C@@H](C)c1ccc(C2CCN(c3ncc(-c4ccc(OC(F)(F)F)cc4)cn3)CC2)cc1`
Response: 0.55

Request: Moving on to `CC(=O)N[C@@H](C)c1ccc(C2CCN(c3cc(N[C@H](C)C(C)C)ncn3)CC2)cc1`
Response: 6

Request: Moving on to `COc1cncc(-c2cnc(N3CCC(c4ccc([C@H](C)NC(C)=O)cc4)CC3)nc2)c1`
Response: 0.32

Request: Moving on to `CC(=O)N[C@@H](C)c1ccc(C2CCN(c3ccc(F)c(C#N)c3)CC2)cc1`
Response: 2.7

----------
- study_target: human ACC2 (Homo sapiens)
- Construct: made in house; host or cells: insect cells (baculoviral expression system)
- assay_explanation: ACC2 assay, spectrophotometric 384 well assay (NADH-linked, coupled lactate dehydrogenase/pyruvate kinase)
- Type: biochemical
- condition_description: ACC2 assay, hACC2 construct lacking 128 N-terminal amino acids, 25° C., 340 nm; read-out: IC50
pIC50: −log10 of the molar value.
pIC50 vs 6: at or above is 1 (yes), below is 0 (no).

Request: Is the recorded value of pIC50 equal to or greater than 6 for this compound? CCOC(=O)c1cc2cc(N3CCC(c4ccc([C@H](C)NC(C)=O)cc4)CC3)ccc2o1 [Example 15.17]
Response: 1 (yes)

Request: Moving on to CC(=O)N[C@@H](C)c1ccc(C2CCN(c3ccnc(NCC(C)C)n3)CC2)cc1 [Example 11.66]
Response: 0 (no)

Request: Moving on to C[C@H](NC(=O)C1CC1)c1ccc(C2CCN(c3nc(Cl)ncc3F)CC2)cc1 [Example 5.36]
Response: 0 (no)

Request: Moving on to CC(=O)N[C@@H](C)c1ccc(C2CCN(c3ccc(OC4CCCC4)cc3)CC2)cc1 [Example 1.2]
Response: 1 (yes)

Request: Moving on to C[C@H](NC(=O)N(C)C)c1ccc(C2CCN(c3ccnc(Oc4ccccc4)c3)CC2)cc1 [Example 1.138]
Response: 1 (yes)

Request: Moving on to CC(=O)N[C@@H](C)c1ccc(C2CCN(c3ccc(C)nc3)CC2)cc1 [Example 15.5]
Response: 0 (no)

Request: Moving on to CC(=O)N[C@@H](C)c1ccc(C2CCN(c3cc(NC4CCC4)ncn3)CC2)cc1 [Example 11.46]
Response: 0 (no)

Request: Moving on to CCOc1ccc(N2CCC(c3ccc([C@H](C)NC(=O)c4cnco4)cc3)CC2)cc1 [Example 6.25]
Response: 1 (yes)

Request: Moving on to CC(=O)N[C@@H](C)c1ccc(C2CCN(c3ncccc3C#N)CC2)cc1 [Example 4.1]
Response: 0 (no)

Request: Moving on to CCNc1ncc(N2CCC(c3ccc([C@H](C)NC(C)=O)cc3)CC2)cn1 [Example 16.4]
Response: 1 (yes)

Request: Moving on to CC(C)Oc1cccc(N2CCC(c3ccc([C@H](C)NC(=O)C4CC4)cc3)CC2)c1 [Example 1.78]
Response: 0 (no)

Request: Moving on to CC(C)COc1ccc(N2CCC(c3ccc([C@H](C)NC(=O)C4CC4)cc3)CC2)nc1 [Example 1.118]
Response: 1 (yes)

Request: Moving on to CCC(NC(C)=O)c1ccc(C2CCN(c3ccc4c(c3)OCCO4)CC2)cc1 (centres unmarked) [Example 1.201]
Response: 0 (no)

Request: Moving on to CCOc1cccc(-c2cc(N3CCC(c4ccc([C@H](C)NC(C)=O)cc4)CC3)ncn2)c1 [Example 22.7]
Response: 0 (no)

Request: Moving on to C[C@H](NC(=O)N(C)C)c1ccc(C2CCN(c3ncc(-c4ccc(C#N)cc4)cn3)CC2)cc1 [Example 10.109]
Response: 1 (yes)

Request: Moving on to CC(=O)N[C@@H](C)c1ccc(C2CCN(c3ncc(-c4ccc(C)nc4)cn3)CC2)cc1 [Example 10.33]
Response: 1 (yes)

Request: Moving on to CCCCOc1ccc(N2CCC(c3ccc([C@H](C)NC(C)=O)cc3)CC2)c(C#N)c1 [Example 4.201]
Response: 1 (yes)

Request: Moving on to CCCCOc1ccc(N2CCC(c3ccc([C@H](C)NC(C)=O)cc3)CC2)cc1C#N [Example 8.41]
Response: 0 (no)

Request: Moving on to CC(=O)N[C@@H](C)c1ccc(C2CCN(c3ccc(-c4ccc(C)cc4)cn3)CC2)cc1 [Example 10.314]
Response: 1 (yes)

Request: Moving on to C[C@H](NC(=O)N(C)C)c1ccc(C2CCN(c3ncc4nc(-c5ccccc5)oc4n3)CC2)cc1 [Example 4.47]
Response: 1 (yes)

Request: Moving on to CC(=O)N[C@@H](C)c1ccc(C2CCN(c3ccc(OC4CCC4)nc3)CC2)cc1 [Example 1.62]
Response: 1 (yes)

Request: Moving on to C[C@H](NC(=O)N(C)C)c1ccc(C2CCN(c3ncc(-c4ccc(F)cc4)cn3)CC2)cc1 [Example 10.108]
Response: 1 (yes)

Request: Moving on to CC(=O)N[C@@H](C)c1ccc(C2CCN(c3cc(O)ncn3)CC2)cc1 [Example 11.116]
Response: 0 (no)

Request: Moving on to CCCOc1ccc(N2CCC(c3ccc([C@H](C)NC(C)=O)cc3)CC2)cc1OC [Example 8.33]
Response: 0 (no)

Request: Moving on to COc1ccc(N2CCC(c3ccc([C@H](C)NC(C)=O)cc3)CC2)c(F)c1 [Example 1.96]
Response: 1 (yes)

Request: Moving on to COC(=O)c1cncc(N2CCC(c3ccc([C@H](C)NC(C)=O)cc3)CC2)n1 [Example 5.54]
Response: 0 (no)

Request: Moving on to CC(=O)N[C@@H](C)c1ccc(C2CCN(c3ncc(C(=O)NCc4ccoc4)cn3)CC2)cc1 [Example 18.32]
Response: 0 (no)
